Test system: Schistosoma mansoni schistosomula (NMRI);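 further: visual microscopic scoring of shape, motility and density changes versus 0.5% DMSO solvent controls, one point per descriptor, degeneracy or death scored 4, mean of duplicate wells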
test details: phenotypic severity score (0-4); higher = more antischistosomal effect, active = 2 or more
cond: 48 h; 10 µM
assay metric: phenotypic severity score

# compound, assay metric, value reported
records = [
    ("c1csc(-c2cnc3sc(NCC4CCOCC4)nn23)c1", "phenotypic severity score", 0),
    ("CC(C)(C)n1nc(Cc2ccc(F)c(Cl)c2)c2c(N)ncnc21", "phenotypic severity score", 0),
    ("COC(=O)c1c(NC(=O)c2c(F)c(F)c(F)c(F)c2F)sc2c1CCCCC2", "phenotypic severity score", 4),
    ("O=C(NCc1ccoc1)N1CCN(Cc2ccc3c(c2)OCO3)CC1", "phenotypic severity score", 0),
    ("CC(=O)Nc1ccc(NC(=O)c2cc(-c3cc(Cl)ccc3O)[nH]n2)cc1", "phenotypic severity score", 0),
    ("COc1cccc(-c2nc3c(N4CCCC4)cccc3n2CC2CCCN2)n1 (stereo unspecified)", "phenotypic severity score", 4),
    ("Cc1cccc(NC(=O)c2cc(S(=O)(=O)N(C)c3ccc(F)cc3)ccc2Cl)n1", "phenotypic severity score", 0),
    ("Clc1cccc(C(c2ccc(CN3CCNCC3)cc2)n2ccnc2)c1 (stereo unspecified)", "phenotypic severity score", 1),
    ("COc1cc(NC(=O)Cc2nn(C)c(=O)c3ccccc23)ccc1Cl", "phenotypic severity score", 0),
    ("CCCNC(=O)N1CCC2(CC1)CC(=O)c1cc(C)ccc1O2", "phenotypic severity score", 0),
    ("c1ccc(-c2cc(N3CCCCC3)c3ccccc3n2)nc1", "phenotypic severity score", 0),
]
